Target: Integrin alpha-V/beta-3 (Homo sapiens, UniProt P05106+P06756)
Sequence (P05106 27-788 limits assumed): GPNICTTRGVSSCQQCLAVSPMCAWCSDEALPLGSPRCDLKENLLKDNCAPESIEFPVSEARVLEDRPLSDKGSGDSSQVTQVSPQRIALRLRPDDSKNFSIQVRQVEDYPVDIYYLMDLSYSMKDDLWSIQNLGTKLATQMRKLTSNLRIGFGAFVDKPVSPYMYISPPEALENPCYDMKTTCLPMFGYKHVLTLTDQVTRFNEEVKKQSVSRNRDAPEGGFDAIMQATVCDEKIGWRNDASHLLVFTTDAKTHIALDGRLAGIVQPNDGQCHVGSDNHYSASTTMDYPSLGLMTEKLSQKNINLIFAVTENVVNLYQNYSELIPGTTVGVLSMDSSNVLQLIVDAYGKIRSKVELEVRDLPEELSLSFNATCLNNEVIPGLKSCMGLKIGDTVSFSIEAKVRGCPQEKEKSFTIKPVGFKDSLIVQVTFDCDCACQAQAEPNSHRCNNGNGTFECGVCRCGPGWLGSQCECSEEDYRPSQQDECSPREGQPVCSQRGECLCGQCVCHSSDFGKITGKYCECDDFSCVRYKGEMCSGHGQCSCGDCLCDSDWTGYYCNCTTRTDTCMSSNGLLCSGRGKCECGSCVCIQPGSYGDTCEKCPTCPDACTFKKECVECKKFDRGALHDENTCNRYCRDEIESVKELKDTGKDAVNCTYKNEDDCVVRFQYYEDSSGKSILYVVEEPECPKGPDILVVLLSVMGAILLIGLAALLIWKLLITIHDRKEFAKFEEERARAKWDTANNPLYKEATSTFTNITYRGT
Sequence (P06756 31-889 limits assumed): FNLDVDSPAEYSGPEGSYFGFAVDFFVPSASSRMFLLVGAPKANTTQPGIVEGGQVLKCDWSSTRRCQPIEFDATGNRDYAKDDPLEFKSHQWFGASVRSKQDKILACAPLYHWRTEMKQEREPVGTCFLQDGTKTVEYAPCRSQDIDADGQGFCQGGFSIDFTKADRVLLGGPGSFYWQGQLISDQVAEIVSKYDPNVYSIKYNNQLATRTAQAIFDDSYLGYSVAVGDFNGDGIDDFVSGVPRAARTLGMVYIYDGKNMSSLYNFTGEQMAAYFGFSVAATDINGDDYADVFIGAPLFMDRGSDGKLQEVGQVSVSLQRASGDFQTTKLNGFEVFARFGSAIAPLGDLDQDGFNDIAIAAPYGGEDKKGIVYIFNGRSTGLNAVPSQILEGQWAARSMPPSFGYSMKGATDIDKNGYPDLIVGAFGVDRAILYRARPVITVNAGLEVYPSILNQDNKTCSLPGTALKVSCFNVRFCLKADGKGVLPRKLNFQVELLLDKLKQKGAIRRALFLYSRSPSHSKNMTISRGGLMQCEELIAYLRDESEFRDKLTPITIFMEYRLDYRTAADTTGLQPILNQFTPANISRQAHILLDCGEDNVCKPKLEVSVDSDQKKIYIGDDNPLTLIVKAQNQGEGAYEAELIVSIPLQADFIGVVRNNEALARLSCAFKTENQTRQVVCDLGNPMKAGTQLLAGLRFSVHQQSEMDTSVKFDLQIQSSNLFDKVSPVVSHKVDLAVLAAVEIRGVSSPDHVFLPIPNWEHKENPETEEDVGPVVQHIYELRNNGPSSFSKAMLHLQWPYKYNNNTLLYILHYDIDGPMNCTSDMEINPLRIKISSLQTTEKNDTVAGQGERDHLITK
Sequence (P06756 891-1048 limits assumed): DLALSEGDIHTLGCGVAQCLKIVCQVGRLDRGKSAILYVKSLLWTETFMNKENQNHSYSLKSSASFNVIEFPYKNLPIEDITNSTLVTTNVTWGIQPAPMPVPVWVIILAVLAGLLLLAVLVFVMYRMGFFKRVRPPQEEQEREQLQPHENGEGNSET
Experiment: Binding affinity towards vitronectin receptor (AlphaV-beta3 integrin).
Measure name: Ki (nM)

- Compound: "O=C(O)CC(NC(=O)C1CC(=O)N(c2cccc(NC(=O)NCc3ccccc3)c2)C1)c1cccnc1 (centres undefined)"
  Endpoint unit: "nM"
  Ki: 10.4

a. O=C(O)CC(NC(=O)C1CC(=O)N(c2cccc(NC3=NCCCN3)c2)C1)c1cccnc1 (centres undefined)
b. O=C(O)CC(NC(=O)C1CC(=O)N(c2cccc(NC(=O)NCc3ccccc3)c2)C1)c1ccccc1 (centres undefined)
Exercise: compare a and b ; which one has the greater Ki? Answer = label.
b
(b: 70.9 nM, a: 1.4 nM)
